Tested on: T. cruzi epimastigotes (Y strain)
protocol.notes: Antiproliferative assay on T. cruzi epimastigotes
Type: cell-based
setup.conditions: Trypanosoma cruzi; epimastigotes, 48 h; read-out: IC50 48 h
observable: pIC50
// pIC50 is dimensionless: -log10 of concentration (M)

-- ask Tell me reported pIC50 for CCCCCc1cn(CCCCCCCCCCCOP(=O)([O-])OCC[N+](C)(C)C)nn1 [Compound 25] , tested with T. cruzi epimastigotes (Y strain).
-- reply 5.41

====

Assign % inhibition ± SD at 10 μΜ hERG to each entry below.
tested.system: hERG (Homo sapiens, UniProt Q12809)
Construct: purchased Thermo Fischer Scientific
Sequence (Q12809 whole entry): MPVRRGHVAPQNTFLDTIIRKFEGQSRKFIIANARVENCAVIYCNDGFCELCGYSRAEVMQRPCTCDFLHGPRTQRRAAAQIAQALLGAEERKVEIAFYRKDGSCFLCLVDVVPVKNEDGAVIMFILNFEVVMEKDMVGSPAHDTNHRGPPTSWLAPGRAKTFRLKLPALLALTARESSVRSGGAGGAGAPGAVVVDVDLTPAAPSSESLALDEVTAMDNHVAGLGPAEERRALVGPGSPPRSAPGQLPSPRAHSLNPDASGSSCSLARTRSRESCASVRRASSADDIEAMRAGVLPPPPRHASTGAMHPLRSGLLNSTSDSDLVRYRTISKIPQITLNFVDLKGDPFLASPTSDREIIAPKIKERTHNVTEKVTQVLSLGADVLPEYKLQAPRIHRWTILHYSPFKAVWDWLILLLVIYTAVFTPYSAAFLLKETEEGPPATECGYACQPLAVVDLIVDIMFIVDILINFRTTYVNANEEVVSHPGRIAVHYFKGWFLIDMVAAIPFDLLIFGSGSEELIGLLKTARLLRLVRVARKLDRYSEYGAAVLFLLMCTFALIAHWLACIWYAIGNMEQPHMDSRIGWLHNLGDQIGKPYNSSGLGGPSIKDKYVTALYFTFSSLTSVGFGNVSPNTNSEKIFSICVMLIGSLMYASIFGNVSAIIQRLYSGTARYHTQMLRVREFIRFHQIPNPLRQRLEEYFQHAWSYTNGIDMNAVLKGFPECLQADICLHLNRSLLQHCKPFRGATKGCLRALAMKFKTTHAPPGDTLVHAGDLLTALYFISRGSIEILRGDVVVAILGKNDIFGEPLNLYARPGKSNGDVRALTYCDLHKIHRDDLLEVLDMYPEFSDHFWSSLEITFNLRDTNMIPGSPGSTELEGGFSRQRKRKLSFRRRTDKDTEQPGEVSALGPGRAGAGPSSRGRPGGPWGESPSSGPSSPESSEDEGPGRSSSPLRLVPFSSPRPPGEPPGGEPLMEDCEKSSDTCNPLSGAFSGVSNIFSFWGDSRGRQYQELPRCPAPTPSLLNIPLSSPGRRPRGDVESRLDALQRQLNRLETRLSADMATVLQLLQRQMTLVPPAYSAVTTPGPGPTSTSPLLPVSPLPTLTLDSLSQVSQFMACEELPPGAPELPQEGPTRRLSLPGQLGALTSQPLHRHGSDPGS
protocol.notes: hERG cardiotoxicity assay (Predictor hERG fluorescence polarization)
Type: binding
setup.conditions: compounds 10 μM; miltefosine 10 μM or 1 μM
Quick reminder: number only, in %, skip the unit.

-- ask Fill blank: measured % inhibition ± SD at 10 μΜ hERG of the compound `CCCCCCCCc1noc(CCCCCOP(=O)([O-])OCC[N+](C)(C)C)n1` is ____.
-- reply 8.95

-- ask Repeat for the following compound: `CCCCCCCCc1noc(CCCCCCCCCCOP(=O)([O-])OCC[N+](C)(C)C)n1`
-- reply 17.93

-- ask Cool, now `CCCCCCCCCCCc1nnc(CCCCCCCCCCOP(=O)([O-])OCC[N+](C)(C)C)o1`
-- reply 22.98
